A collection of compounds and their measured melting point

Observe how each entry below is paired with its result.
- Compound: "CC(C)CC(NC(=O)CCc1ccccc1)C(=O)N[C@@H](Cc1ccccc1)C(=O)CSCc1ccco1 (stereo not given in full)"
  melting point: "117 to 119 °C"
- Compound: "C=CCOc1cc([N+](=O)[O-])ccc1OCC1CO1 (stereo not given)"
  melting point: "64 °C"
- Compound: "CCCCOc1ncc(I)cc1C(N)=O"
  melting point: "163 to 166 °C"
- Compound: "Cn1c(=O)c(-c2c(Cl)cccc2Cl)cc2cnc(Nc3ccccc3)nc21"
  melting point: "247 to 249 °C"
- Compound: "COC1(C)CCc2c(C)c(OC(C)=O)c(C)c(C)c2O1 (stereo not given)"
  melting point: "71 to 72.5 °C"

Enquiry: Quick one: melting point for CC(=O)Nc1ccc(OC2SCC(OC(C)=O)C(OC(C)=O)C2OC(C)=O)cn1 (stereo not given) ?
Return: 132 to 133 °C

Enquiry: Quick one: melting point of CCOC1(C(Cl)(Cl)Cl)NC(=O)C(=O)N1 ?
Return: 189 to 201 °C

Enquiry: Returns the measured melting point for the input compound. Input: COc1ccc(C(=C2CCN(CCc3c(C)nc4scc(C)n4c3=O)CC2)c2ccc(F)cc2)cc1
Return: 140 °C

Enquiry: Please report the recorded melting point for CCCCc1cc(=O)c2ccccc2[nH]1 .
Return: 140 °C

Enquiry: Recorded melting point for O=C(Oc1ccc(-c2ccccc2)cc1)Oc1ccc([N+](=O)[O-])cc1 , please?
Return: 138 to 140 °C
